test: HT1080 cell viability loss – fluorescence readout (AID 620); settings: at 10 µM, active compounds read high;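 further: cells exposed to compound overnight then 4 h with Alamar Blue; 0% = vehicle DMSO and 100% = killing control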
Screen size: about 87,000 compounds; about 360 (0.41%) were called active. The full list was thinned out, with actives kept by preference.
cytotoxicity overview
Please reply with the bare figure in % and do not write the unit itself.

The cases that follow already have their cytotoxicity on record.
INSERT INTO assay_data (molecule, valuemeasured) VALUES
  ('CSc1ccc2c(c1)N(CCC1CCCCN1C)c1ccccc1S2 (stereo unspecified)', 82.9),
  ('FC(F)(F)c1cc(-c2ccco2)nc(-n2cnc3ccccc32)n1', -14.2),
  ('Cc1nn(-c2ccccc2)c(C)c1C(=O)OCC(=O)NCc1ccco1', -6.6);

Prompt: Which measured cytotoxicity value corresponds to O=C1NCCCC1C(=O)N1CCN(C(=O)C2CCCNC2=O)CC1 (stereo unspecified) ?
Response: -7.4

---

assay: HT1080 cell viability loss – fluorescence readout (AID 620); details: at 10 µM, active compounds read high;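 further: cells exposed to compound overnight then 4 h with Alamar Blue; 0% = vehicle DMSO and 100% = killing control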
Hit rate of the full screen: of about 87,000 compounds, about 360 (0.41%) were called active. This excerpt belongs to a sample that is enriched for actives.
Listed compounds paired with reported cytotoxicity
Write the number in % without appending the unit.

INSERT INTO measurements (compound, propertymeasured, valuemeasured) VALUES
  ('O=C(Nc1cccc(-c2cnc3ccccc3n2)c1)c1ccco1', 'cytotoxicity', -2.2);

Prompt: Quick check: cytotoxicity of COc1ccc(C(c2nnnn2C2CCCC2)N2CCN(C3CCCC3)CC2)cc1OC (stereo not given) ?
Response: -1.8

Prompt: Using the record for c1ccc(NCc2nnc3n2CCCCC3)cc1 , report its cytotoxicity.
Response: 1.8

Prompt: Fill in: cytotoxicity of CO/N=C/C(=N\Nc1ccc(C)cc1)C(=O)c1ccc(OC)cc1 is ___
Response: 53.7

Prompt: If you can, please state the reported cytotoxicity value of CO/N=C\C(=N\Nc1ccc(OC)cc1)C(=O)c1ccccc1 .
Response: -0.7

Prompt: Entry O=C(Nc1nnc(C(F)(F)F)s1)c1cccnc1 : reported cytotoxicity = ?
Response: 24

Prompt: Quick check: cytotoxicity of O=C(C1CC1)N1CCN=C1SCc1ccccc1 ?
Response: -4.5

Prompt: Given the compound O=C(CNC(=O)c1ccc(Br)o1)Nc1cccc(-c2cnc3ccccc3n2)c1 , what is its reported cytotoxicity?
Response: -7.7

Prompt: Quick check: cytotoxicity of O=C1CCc2cc(S(=O)(=O)N3CCCC3C(=O)N3CCN(c4ccccc4)CC3)ccc2N1 (stereo not given) ?
Response: -3.8

Prompt: I would be grateful if you could share the reported cytotoxicity for O=C(Nc1ccc(N2CCN(Cc3ccccc3)CC2)cc1)c1ncn[nH]1 .
Response: -2.9

Prompt: Which measured cytotoxicity value corresponds to CCOc1ccc(-c2nnc3sc(-c4ccccc4OC)nn23)cc1 ?
Response: 22

Prompt: Request the reported cytotoxicity associated with CCC(=O)Nc1ccc(OC)cc1OC
Response: -3.2

Prompt: Return reported cytotoxicity; argument: CC(C)(C)N(Cc1ccccc1)C(=O)c1ccc2c(c1)OCCO2
Response: -6.6

Prompt: Which cytotoxicity is reported for this compound? O=C(CC1(O)C(=O)Nc2cc(Cl)cc(Cl)c21)c1ccccc1O (stereo not given)
Response: -66.6

Prompt: For the compound COc1ccccc1-c1nnc2sc(-c3ccc(N(C)C)cc3)nn12 , what cytotoxicity is on record?
Response: 33.1

Prompt: I have this compound here, COC(F)(C(=O)Nc1ccc2c(c1)C(=O)NC2=O)C(F)(F)F (stereo not given) , and I need its recorded cytotoxicity.
Response: 0.1

Prompt: Entry COc1ccc(/C=C2\CCc3ccccc3C2=O)cc1Cn1cccn1 has what cytotoxicity?
Response: -6.8

Prompt: Would you kindly share the measured cytotoxicity for CCOCc1nnc(NC(=O)c2ccc(OC)cc2)s1 ?
Response: 7.7

Prompt: Request the reported cytotoxicity associated with CC(C(=O)N=c1sc2ccccc2n1C)N1C(=O)C2CC=CCC2C1=O (stereo not given)
Response: -11

Prompt: Could you tell me which cytotoxicity is on file for COc1cccc(OCCSc2nnc3sc4ccccc4n23)c1 ?
Response: 12.4
